measuredTarget: Neutrophil cytosol factor 1 (Homo sapiens) (UniProt P14598)
Sequence (P14598 whole entry, looked up): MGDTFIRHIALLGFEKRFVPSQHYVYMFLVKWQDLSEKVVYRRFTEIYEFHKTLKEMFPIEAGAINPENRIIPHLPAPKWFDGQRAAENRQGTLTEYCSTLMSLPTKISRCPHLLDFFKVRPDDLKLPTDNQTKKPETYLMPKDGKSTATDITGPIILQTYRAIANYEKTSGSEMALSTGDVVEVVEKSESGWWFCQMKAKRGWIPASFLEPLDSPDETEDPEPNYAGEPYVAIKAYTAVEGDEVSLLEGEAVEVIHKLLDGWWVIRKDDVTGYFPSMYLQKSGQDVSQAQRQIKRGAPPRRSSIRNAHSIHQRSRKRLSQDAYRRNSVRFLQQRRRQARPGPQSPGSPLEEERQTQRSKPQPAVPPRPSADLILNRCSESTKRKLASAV
measurementDescription: p47phox binding inhibitors, dose response, biochemical, NADPH oxidase regulatory subunit, fluorescence polarization (AID 1275)
testContext: at 12.5 µM
The whole screen tested about 1,000 compounds, of which about 160 (16%) were called active. The list shows a part of the results.
endpoint: percent of control, lower = inhibition
No unit in the answer, only the number.

N#CC(C#N)=C1C=C2C=C(N3CCCCC3)CCC2CC1 (stereo not given)	107

Prompt: Name the reported percent of control, lower = inhibition value associated with the compound CN(C)c1ccc(/C=C(\C#N)C(=O)c2ccccc2)cc1
Response: 69.6

Prompt: Now the same for Cc1ccc2cc3c(N)c4c(C)ccc(C)c4nc3nc2c1
Response: 51.8

Prompt: Now the same for CN(C)c1ccc(/C=C/C(=O)c2cc(Cl)ccc2O)cc1
Response: 50.8

Prompt: Now the same for Cc1ccc(-n2c(C)cc(C3N=C(N)Nc4nc5ccccc5n43)c2C)c(C)c1 (stereo not given)
Response: 66.2
